Test: Enzymatic kinetic measurements of purified proteins with compound A as substrate
Format: biochemical
Settings: purified protein, compound A 0-1000 μM as substrate
outcomeMeasure: Km (µM)
Answers are plain numbers, in µM.

Query: Can you share its Km? I mean this molecule: SEQ ID NO: 46: RdpA mutant L82H + V187L + F182W + R104G + T112S (protein) MHAALSPLSQRFERIAVQPLTGVLGAEITGVDLREPLDDSTWNEILDAFHTYQVIYFPGQAITNEQHIAFSRRFGPVDPVPHLKSIEGYPEVQMIRREANESGGVIGDDWHSDSTFLDAPPAAVVMRAIDVPEHGGDTGFLSMYTAWETLSPTMQATIEGLNVVHSATRVFGSLYQAQNRRWSNTSLKVMDVDAGDRETVHPLVVTHPGSGRKGLYVNQVYCQRIEGMTDAESKPLLQFLYEHATRFDFTCRVRWKKDQVLVWDNLCTMHRAVPDYAGKFRYLTRTTVGGVRPAR
Response: 17.5
